- Test system: P. falciparum multidrug resistant line Dd2
- protocolSummary: SYBR Green I-based antiplasmodial assay, asexual blood stage, Dd2
- Assay type: cell-based, Plasmodium falciparum
- testContext: Plasmodium falciparum, DD2, read-out: Dd2: EC50, individual replicates
pEC50: −log10 of the molar value.
Quick reference for pEC50 among some molecules

# molecule, readingQualifier, pEC50
measured = [
    ("C=C1C(C)C2C(Cc3ccccc3)NC(=O)C23C(=O)C=CC(O)C(O)C(C)CC(C)CC=CC3C1O (stereo not shown)", "=", 6.30),
    ("C=C1C(C)C2C(Cc3ccccc3)NC(=O)C23C(=O)C=CC(O)CC(C)CC(C)CC=CC3C1O (stereo not shown)", "=", 5.65),
    ("C=C1[C@@H](C)[C@H]2[C@H](Cc3ccccc3)NC(=O)[C@]23C(=O)/C=C/C(=O)C[C@@H](C)C[C@H](C)C/C=C/[C@H]3[C@@H]1O", "<", 5.30),
    ("CC1CC=CC2C=C(CO)C(C)C3C(Cc4ccccc4)NC(=O)C23C(=O)C=CC(=O)C(O)C(C)C1 (stereo not shown)", "<", 5.30),
]

====

- System: in vitro evolved NPDG-F-resistant Dd2-Pol δ clones (PfActin1 mutations)
- protocolSummary: Resistant parasite phenotyping and cross resistance, SYBR green I EC50 assay, NPDG-F-resistant clones
- Type: cell-based, Plasmodium falciparum
- testContext: Plasmodium falciparum, DD2, clone 2-C4; A136S; read-out: EC50 (mean ± SEM)

# molecule, quantityUnit, EC50
records = [
    ("C=C1C(C)C2C(Cc3ccccc3)NC(=O)C23C(=O)C=CC(O)C(O)C(C)CC(C)CC=CC3C1O (centres unmarked)", "µM", 14.1),
    ("C=C1[C@@H](C)[C@H]2[C@H](Cc3ccccc3)NC(=O)[C@]23[C@H](OC(C)=O)/C=C/[C@@](C)(O)C(=O)[C@@H](C)C/C=C/[C@H]3[C@@H]1O", "µM", 0.0608),
]

====

- Tested on: P. falciparum multidrug resistant line Dd2
- protocolSummary: SYBR Green I-based antiplasmodial assay, asexual blood stage, Dd2
- Type: cell-based, Plasmodium falciparum
- testContext: Plasmodium falciparum, DD2, read-out: Dd2: Average EC50, average ± SEM of three replicates
Listed compounds paired with reported EC50

# compound, quantityUnit, readingQualifier, EC50
data = [
    ("C=C1[C@@H](C)[C@H]2[C@H](Cc3ccccc3)NC(=O)[C@]23C(=O)/C=C/C(=O)C[C@@H](C)C[C@H](C)C/C=C/[C@H]3[C@@H]1O [Methyldeoxaphomin NPDG-A]", "nM", ">", 5000),
    ("C=C1C(C)C2C(Cc3ccccc3)NC(=O)C23C(=O)C=CC(O)CC(C)CC(C)CC=CC3C1O (stereo not shown) [Methyldeoxaphomin NPDG-E]", "nM", "=", 2600),
    ("CC1CC=CC2C=C(CO)C(C)C3C(Cc4ccccc4)NC(=O)C23C(=O)C=CC(=O)C(O)C(C)C1 (stereo not shown) [Methyldeoxaphomin NPDG-D]", "nM", ">", 5000),
    ("C=C1C(C)C2C(Cc3ccccc3)NC(=O)C23C(=O)C=CC(O)C(O)C(C)CC(C)CC=CC3C1O (stereo not shown) [Methyldeoxaphomin NPDG-F]", "nM", "=", 550),
]

====

- Test system: P. falciparum
- protocolSummary: Isobologram assay with NPDG-F
- Assay type: cell-based, Plasmodium falciparum
- testContext: Plasmodium falciparum; single compounds, dose–response, Fig. 3A; read-out: Mean IC50 ± SEM
pIC50: −log10 of the molar value.

# compound, pIC50
data = [
    ("C[C@H]1[C@@H](O)O[C@@H]2O[C@@]3(C)CC[C@H]4[C@H](C)CC[C@@H]1[C@@]24OO3 [DHA, dihydroartemisinin]", 8.30),
]

====

- Test system: P. falciparum multidrug resistant line Dd2
- protocolSummary: SYBR Green I-based antiplasmodial assay, asexual blood stage, Dd2
- Assay type: cell-based, Plasmodium falciparum
- testContext: Plasmodium falciparum, DD2, 72 h, read-out: Dd2 EC50, means from triplicate experiments ± SEM; 72 h
pEC50: −log10 of the molar value.

# compound, testTarget, readingQualifier, pEC50
rows = [
    ("C=C1[C@@H](C)[C@H]2[C@H](Cc3ccccc3)NC(=O)[C@]23C(=O)/C=C/C(=O)C[C@@H](C)C[C@H](C)C/C=C/[C@H]3[C@@H]1O", "P. falciparum multidrug resistant line Dd2", "<", 5.30),
    ("CC1CC=CC2C=C(CO)C(C)C3C(Cc4ccccc4)NC(=O)C23C(=O)C=CC(=O)C(O)C(C)C1 (stereo not shown)", "P. falciparum multidrug resistant line Dd2", "<", 5.30),
    ("C=C1C(C)C2C(Cc3ccccc3)NC(=O)C23C(=O)C=CC(O)C(O)C(C)CC(C)CC=CC3C1O (stereo not shown)", "P. falciparum multidrug resistant line Dd2", "=", 6.26),
    ("C=C1C(C)C2C(Cc3ccccc3)NC(=O)C23C(=O)C=CC(O)CC(C)CC(C)CC=CC3C1O (stereo not shown)", "P. falciparum multidrug resistant line Dd2", "=", 5.59),
]

====

- System: P. falciparum chloroquine-sensitive line 3D7
- protocolSummary: SYBR Green I-based antiplasmodial assay, asexual blood stage, 3D7
- Assay type: cell-based, Plasmodium falciparum
- testContext: Plasmodium falciparum, 3D7, means from triplicate experiments ± SEM; read-out: 3D7 EC50
pEC50: −log10 of the molar value.

# compound, testTarget, readingQualifier, pEC50
rows = [
    ("C=C1C(C)C2C(Cc3ccccc3)NC(=O)C23C(=O)C=CC(O)CC(C)CC(C)CC=CC3C1O (stereo not shown) [Methyldeoxaphomin NPDG-E]", "P. falciparum chloroquine-sensitive line 3D7", "=", 5.55),
    ("C=C1C(C)C2C(Cc3ccccc3)NC(=O)C23C(=O)C=CC(O)C(O)C(C)CC(C)CC=CC3C1O (stereo not shown) [Methyldeoxaphomin NPDG-F]", "P. falciparum chloroquine-sensitive line 3D7", "=", 6.54),
    ("C=C1[C@@H](C)[C@H]2[C@H](Cc3ccccc3)NC(=O)[C@]23C(=O)/C=C/C(=O)C[C@@H](C)C[C@H](C)C/C=C/[C@H]3[C@@H]1O [Methyldeoxaphomin NPDG-A]", "P. falciparum chloroquine-sensitive line 3D7", "<", 5.30),
    ("CC1CC=CC2C=C(CO)C(C)C3C(Cc4ccccc4)NC(=O)C23C(=O)C=CC(=O)C(O)C(C)C1 (stereo not shown) [Methyldeoxaphomin NPDG-D]", "P. falciparum chloroquine-sensitive line 3D7", "<", 5.30),
]

The values you see were collected from paper PMC11874377.
